Biological target: 12-lipoxygenase (Homo sapiens)
Construct: 12-lipoxygenase obtained from human platelets; from tissue; host or cells: human platelets
Sequence (P18054 whole entry): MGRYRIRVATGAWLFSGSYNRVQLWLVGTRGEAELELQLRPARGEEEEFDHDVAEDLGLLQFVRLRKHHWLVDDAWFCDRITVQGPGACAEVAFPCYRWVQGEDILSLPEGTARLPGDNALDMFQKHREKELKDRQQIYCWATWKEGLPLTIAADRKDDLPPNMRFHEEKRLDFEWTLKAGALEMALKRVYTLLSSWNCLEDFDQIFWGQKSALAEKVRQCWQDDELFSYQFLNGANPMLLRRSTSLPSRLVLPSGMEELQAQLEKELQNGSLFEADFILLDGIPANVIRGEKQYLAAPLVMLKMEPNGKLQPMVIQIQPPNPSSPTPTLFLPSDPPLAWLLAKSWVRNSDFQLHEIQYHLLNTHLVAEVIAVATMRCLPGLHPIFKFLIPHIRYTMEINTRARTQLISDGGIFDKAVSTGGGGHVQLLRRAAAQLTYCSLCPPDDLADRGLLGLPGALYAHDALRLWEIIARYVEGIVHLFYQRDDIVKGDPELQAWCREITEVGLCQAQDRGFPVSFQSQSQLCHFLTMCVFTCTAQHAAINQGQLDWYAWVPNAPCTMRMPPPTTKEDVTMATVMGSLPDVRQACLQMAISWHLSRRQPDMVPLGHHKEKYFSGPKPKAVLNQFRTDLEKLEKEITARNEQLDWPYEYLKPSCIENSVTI
Experiment: 12-lipoxygenase inhibition (12-lipoxygenase obtained from human platelets)
Format: biochemical
Conditions: read-out: % Inhibition at Indicated Concentration, 12-lipoxygenase, 10 μM
Protocol: The compounds of this invention are potent inhibitors of 5-, 12- and 15-lipoxygenase. […] Reaction products were separated from nonconverted substrate by thin layer chromatography and measured by liquid scintillatiton spectroscopy. Inhibition of 5-lipoxygenase activity was calculated as the ratio of the amounts of product formed in the presence and absence of inhibitor. […]
Task for the reader: assign each of the following compounds its reported inhibition at 10 µM.
Give the number; % is assumed, so skip it.

Prompt: Reported inhibition at 10 µM for CN(O)C(=O)C=Cc1cc2ccccc2cc1[N+](=O)[O-] : what is it?
Completion: 81

Prompt: Value lookup for inhibition at 10 µM; key = CN(O)C(=O)C=Cc1cccc2ccccc12
Completion: 82

Prompt: Param item = Cc1ccc2ccc(CCC(=O)NO)cc2c1 ; retrieve measured inhibition at 10 µM.
Completion: 82

Prompt: Which inhibition at 10 µM reading was recorded for the compound O=C(C=Cc1ccc2ccccc2c1)N(O)c1ccccc1 ?
Completion: 82
